System: chronic myelogenous leukemia K562 cells
Experiment: MTT cytotoxicity assay, K562
Type: cell-based
Conditions: Homo sapiens, K562, 72 h, read-out: IC50 K562
Observed Property: IC50 (µM)
One number for each entry, in µM.

{"Compound": "COC(=O)C1=C(C)N(C)C(=S)NC1c1ccc(O)c(OC)c1 (centres unmarked)", "IC50 / µM": 197}

State the recorded IC50 for every item in the following list.
1. COC(=O)C1=C(C)N(C)C(=S)NC1c1ccc(C(=O)O)cc1 (centres unmarked)
2. COC(=O)C1=C(C)N(C)C(=S)NC1c1ccc(Cl)cc1 (centres unmarked)
3. COC(=O)C1=C(C)N(C)C(=S)NC1c1ccccc1 (centres unmarked)
4. COC(=O)C1=C(C)N(C)C(=S)NC1c1ccc([N+](=O)[O-])cc1 (centres unmarked)

*A*
[195, 95.9, 163, 193]
